# target_of_assay: UniProt P10636
# assay_overview: MCE Phenols Library screening, tau biosensor cell seeding assay (AvZ)
# Assay type: cell-based
# condition_notes: puncta, replicate 1
quantity: raw data 1

Field: example entries. Status: answers known.
compound	raw data 1
CC(C)c1cc2c(c(O)c1O)[C@@]13CCCC(C)(C)[C@@H]1C[C@@H]2OC3=O	31586
COC(=O)[C@]1(O)C[C@@H](O)[C@@H](O)[C@H](OC(=O)/C=C/c2ccc(O)c(O)c2)C1	21876.3
NCc1ccc(O)cc1 [4-Hydroxybenzylamine]	18024.8

Q) Could you please provide reported raw data 1 for Oc1cccc(O)c1O ? Thanks!
A) 18727.1

Q) Identify the reported raw data 1 for the following entry. CCCCCC/C=C\CCCCCCCCCc1cccc(O)c1C(=O)O
A) 30979.1

* * *

# target_of_assay: UniProtKB P10636
# assay_overview: MCE Phenols Library screening, tau biosensor cell seeding assay (AvZ)
# Type: cell-based
# condition_notes: Z score, replicate 2
quantity: Z Repl 2

molecule	val
COc1ccc2c(c1O)-c1c(OC)c(OC)cc3c1[C@H](C2)N(C)CC3	-0.651

Q) Retrieve Z Repl 2 measured for C[C@@H]1O[C@@H](O[C@H]2[C@H](Oc3c(-c4ccc(O)cc4)oc4cc(O)cc(O)c4c3=O)O[C@H](CO)[C@@H](O)[C@@H]2O)[C@H](O)[C@H](O)[C@H]1O [Kaempferol 3-neohesperidoside] and print it.
A) -0.619

Q) Let me know recorded Z Repl 2 for O=C(/C=C/c1ccc(O)c(O)c1)O[C@@H]1C[C@](O)(C(=O)O)C[C@@H](OC(=O)/C=C/c2ccc(O)c(O)c2)[C@H]1O , thanks.
A) 0.275

Q) Answer with the recorded Z Repl 2 for the molecule listed here: O=C1c2c(O)cc(O)cc2O[C@H](c2ccc(O)cc2)[C@H]1O [Dihydrokaempferol]
A) 0.084

Q) Give the reported value of Z Repl 2 for this record: C=CCc1cc(OC)c(O[C@@H](C)[C@H](O)c2ccc(O)c(OC)c2)c(OC)c1
A) 0.299

* * *

The following compounds are listed with their measured av Z values.
# target_of_assay: tau (Homo sapiens)
# assay_overview: MCE Phenols Library screening, tau biosensor cell seeding assay (AvZ)
# Assay type: cell-based
# condition_notes: average Z score of the two replicates, MCE Phenols Library screen
Give the figure by itself; no unit, no explanation.

compound	target_of_assay	av Z
O=c1c(O[C@@H]2O[C@H](CO)[C@@H](O)[C@H](O)[C@H]2O[C@@H]2O[C@H](CO)[C@@H](O)[C@H](O)[C@H]2O)c(-c2ccc(O)cc2)oc2cc(O)cc(O)c12 [Kaempferol 3-O-sophoroside]	tau (Homo sapiens)	-0.276
O=C(/C=C/c1ccc(O)c(O)c1)O[C@@H]1C[C@@](O)(C(=O)O)C[C@@H](O)[C@@H]1O [Neochlorogenic acid]	tau (Homo sapiens)	-0.58
COc1cc2c(cc1OC)[C@@H](Cc1ccc(O)c(Oc3cc4c(cc3OC)CCN(C)[C@@H]4Cc3ccc(O)cc3)c1)N(C)CC2 [Liensinine]	tau (Homo sapiens)	-0.249

Q) Give av Z for the following compound: COc1cc(O)c(C(=O)/C=C/c2ccc(O)cc2)c(OC)c1 [Flavokawain C]
A) -0.422

Q) Determine its reported av Z: COc1ccc(-c2oc3c(CC=C(C)C)c(O[C@@H]4O[C@H](CO)[C@@H](O)[C@H](O)[C@H]4O)cc(O)c3c(=O)c2O[C@@H]2O[C@@H](C)[C@H](O)[C@@H](O)[C@H]2O[C@@H]2O[C@H](CO)[C@@H](O)[C@H](O)[C@H]2O)cc1 [Epimedin A]
A) -1.023

* * *

# target_of_assay: tau (Homo sapiens, UniProt P10636)
# Sequence (P10636 623-695 limits assumed): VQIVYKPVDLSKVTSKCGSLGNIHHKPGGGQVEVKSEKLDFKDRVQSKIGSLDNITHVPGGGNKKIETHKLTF
# assay_overview: MCE Phenols Library screening, tau biosensor cell seeding assay (AvZ)
# Format: cell-based
# condition_notes: Z score, replicate 1
Note to self: class labels come from recorded Z repl 1, ranges listed here: low (below -0.2), intermediate (-0.2 to below 0.2), high (0.2 or more)

compound	target_of_assay	cat
O=C(O)[C@H]1O[C@@H](Oc2c(-c3ccc(O)c(O)c3)oc3cc(O)cc(O)c3c2=O)[C@H](O)[C@@H](O)[C@@H]1O [Miquelianin]	tau (Homo sapiens, UniProt P10636)	high
C[C@@H]1O[C@@H](O[C@@H]2[C@@H](O)[C@H](O)[C@@H](CO)O[C@H]2c2c(O)cc(O)c3c(=O)cc(-c4ccc(O)cc4)oc23)[C@H](O)[C@H](O)[C@H]1O [Vitexin-2"-O-rhamnoside]	tau (Homo sapiens, UniProt P10636)	high
COc1cc(O)c2c(=O)cc(-c3ccccc3)oc2c1 [Tectochrysin]	tau (Homo sapiens, UniProt P10636)	high
COC(=O)c1cc(O)c(O)c(O)c1 [Methyl gallate]	tau (Homo sapiens, UniProt P10636)	low
CC(C)=CCc1c(O)ccc(C(=O)[C@@H]2[C@@H](c3c(O)cc(O)c4c(=O)c(CC=C(C)C)c(-c5ccc(O)cc5O)oc34)C=C(C)C[C@H]2c2ccc(O)cc2O)c1O [Kuwanon H]	tau (Homo sapiens, UniProt P10636)	low
O=C(O)c1cccc(O)c1 [3-Hydroxybenzoic acid]	tau (Homo sapiens, UniProt P10636)	low
Cc1cc(O)c2c(c1)C(=O)c1cc(O)cc(O[C@@H]3O[C@H](CO)[C@@H](O)[C@H](O)[C@H]3O)c1C2=O [Emodin-8-glucoside]	tau (Homo sapiens, UniProt P10636)	intermediate
Oc1cc(O)c2c(c1)O[C@H](c1ccc(O)c(O)c1)[C@@H](O)[C@H]2O [Leucocyanidin]	tau (Homo sapiens, UniProt P10636)	intermediate

Q) For the record COc1ccc(-c2oc3c(CC=C(C)C)c(O)cc(O)c3c(=O)c2O[C@@H]2O[C@@H](C)[C@H](O)[C@@H](O)[C@H]2O[C@@H]2O[C@H](CO)[C@@H](O)[C@H](O)[C@H]2O)cc1 [Sagittatoside A] , report the class its Z repl 1 corresponds to.
A) low

Q) Please report the category associated with COc1cc2ccc(=O)oc2c(O[C@@H]2O[C@H](CO)[C@@H](O)[C@H](O)[C@H]2O)c1O [Fraxin] , nothing else.
A) intermediate

Q) Which class does OCc1ccc(O[C@@H]2O[C@H](CO)[C@@H](O)[C@H](O)[C@H]2O)cc1 [Gastrodin] fall in?
A) low

Q) Given C/C=C/c1ccc(OC(C)=O)c(OC)c1 [Isoeugenol acetate] , name the class its Z repl 1 places it in.
A) low

Q) Form: Item = O=c1c2c(O)cc(O)cc2oc2c(O)ccc(O[C@@H]3O[C@H](CO)[C@@H](O)[C@H](O)[C@H]3O)c12 [Norswertianolin] ; Class = ?
A) low

Q) Category of COc1cc(/C=C/c2cc(O)cc(O)c2)ccc1O [Isorhapontigenin] , please.
A) high

Q) Dear colleague, I would appreciate it if you could identify the bin for COc1cc2ccc(=O)oc2c(OC)c1O [Isofraxidin] and reply at your convenience.
A) high

Q) Sort Oc1ccc(OC2CCCCO2)cc1 (stereo not shown) [Deoxyarbutin] into one of the categories.
A) high

* * *

# target_of_assay: tau (Homo sapiens, UniProt P10636)
# assay_overview: MCE Phenols Library screening, tau biosensor cell seeding assay (AvZ)
# Type: cell-based
# condition_notes: Z score, replicate 1
quantity: Z repl 1
Simply state the number, no unit and no words.

A selection of reference data follows.
compound	target_of_assay	Z repl 1
COc1cc(CO)ccc1O	tau (Homo sapiens, UniProt P10636)	0.198
COc1ccc(/C=C/c2cc(O)cc(O[C@@H]3O[C@H](CO)[C@@H](O)[C@H](O)[C@H]3O)c2)cc1	tau (Homo sapiens, UniProt P10636)	0.811
O=c1c(O[C@@H]2O[C@@H](CO)[C@H](O)[C@H]2O)c(-c2ccc(O)c(O)c2)oc2cc(O)cc(O)c12	tau (Homo sapiens, UniProt P10636)	1.115

Next compound, please.
Q) Tell me its Z repl 1 on tau (Homo sapiens, UniProt P10636): O=c1c(-c2ccc(O)cc2)coc2c([C@@H]3O[C@H](CO[C@@H]4OC[C@@H](O)[C@H](O)[C@H]4O)[C@@H](O)[C@H](O)[C@H]3O)c(O)ccc12 [Puerarin 6''-O-Xyloside]
A) -0.042

* * *

# target_of_assay: tau (Homo sapiens)
# assay_overview: MCE Phenols Library screening, tau biosensor cell seeding assay (AvZ)
# Format: cell-based
# condition_notes: Z score, replicate 1
Each entry falls in a class defined on Z repl 1; the bands are lower level (below -0.6), middle level (-0.6 to below 0.2), upper level (0.2 or more)

Would you please look over these solved cases?
molecule	cat
O=c1cc(O)cc(/C=C/c2ccc(O)c(O)c2)o1	upper level
Oc1cc(O)c2c(c1)O[C@H](c1ccc(O)c(O)c1)[C@H](O)[C@H]2c1c(O)cc(O)c2c1O[C@H](c1ccc(O)c(O)c1)[C@H](O)C2	lower level

Q) Which bin should I file O=C(/C=C/c1ccc(O)c(O)c1)O[C@@H]1C[C@](O)(C(=O)O)C[C@@H](O)[C@H]1O under?
A) upper level

Q) The entry to classify is CC(=O)O[C@H](CC=C(C)C)C1=CC(=O)c2c(O)ccc(O)c2C1=O ; which class holds it?
A) upper level
